// data source = patent US7678918B2

# maps each entry to its melting point

> print(dat)
                          item.smiles  experimental.result
1               Clc1cc2nnnn2c2cnccc12        176 to 177 °C
2             Cc1nnnn1-c1ncccc1C(=O)O        178 to 180 °C
3  CCCCc1nc2cnc3cccnc3c2n1CCOc1ccccc1      150 to 150.5 °C

State the recorded melting point for this entry: CCCCc1nc2c(N)nc3cccnc3c2n1CCNC(=O)Cn1cc(C)c(=O)[nH]c1=O
241 to 242 °C

State the recorded melting point for this entry: CC(C)Cn1cnc2c(N)nc3cccnc3c21
230 to 231.5 °C

* * *

Test system: TNF
Assay: Cytokine Induction in Human Cells: tumor necrosis factor (TNF) secreted by PBMCs, ELISA; note: call rule not given here
Type: cell-based
Settings: Dose Concentration 1.0 μM, 18 to 24 hours
measurement-kind: TNF induction

Here are 6 molecules together with their reported answers.
> print(dat)
                                   molecule  experimental.result
1  CCCCc1nc2c(N)nc3cccnc3c2n1CCNC(=O)c1cccnc1Cl                    −
2          CCCCc1nc2c(N)nc3cccnc3c2n1CC(C)C                    +
3  CCCCc1nc2c(N)nc3cccnc3c2n1CCNC(=O)C1CCCC1                    −
4  CCCCc1nc2c(N)nc3cccnc3c2n1CCNC(=O)Cc1cccc(O)c1                    +
5             Cc1nc2c(N)nc3cccnc3c2n1CC(C)C                    −
6        CCCCc1nc2c(N)nc3c(c2n1CC(C)C)CCNC3                    −

State the recorded TNF induction for this entry: CCCCc1nc2c(N)nc3cccnc3c2n1CCNC(=O)C1CCCCC1
+

State the recorded TNF induction for this entry: CCCCc1nc2c(N)nc3cccnc3c2n1CCCCNC(=O)C1(c2ccc(Cl)cc2)CCCC1
−

State the recorded TNF induction for this entry: CCCCc1nc2c(N)nc3cccnc3c2n1CCCCNC(=O)c1c(F)c(F)c(F)c(F)c1F
+

State the recorded TNF induction for this entry: CCCCNC(=O)NCCCCn1c(CCCC)nc2c(N)nc3cccnc3c21
+

State the recorded TNF induction for this entry: CCCCc1nc2c(N)nc3cccnc3c2n1CCCCNC(=O)c1cccnc1
+

State the recorded TNF induction for this entry: CCCCc1nc2c(N)nc3cccnc3c2n1CCCCNC(=O)c1ccco1
+

State the recorded TNF induction for this entry: CCCCc1nc2c(N)nc3cccnc3c2n1CCCCNC(=O)CC1CCCC1
+

State the recorded TNF induction for this entry: CCCCc1nc2c(N)nc3cccnc3c2n1CCCCNC(=O)Oc1ccccc1
+

State the recorded TNF induction for this entry: CCCCc1nc2c(N)nc3cccnc3c2n1CCCOC(C)C
−

State the recorded TNF induction for this entry: CCCCCCCOc1ccc(C(=O)NCCn2c(CCCC)nc3c(N)nc4cccnc4c32)cc1
−

State the recorded TNF induction for this entry: Cc1nc2c(N)nc3cnccc3c2n1CC(C)C
−

State the recorded TNF induction for this entry: CCCCc1nc2c(N)nc3cccnc3c2n1CCNC(=O)COCc1ccccc1
+

State the recorded TNF induction for this entry: CCCCc1nc2c(N)nc3cccnc3c2n1CCCCNC(=O)c1ccc2ncccc2c1
+

* * *

# maps each entry to its melting point
Where a name gives a salt, the structure may show the parent alone.

Here are 6 molecules together with their reported answers.
> print(dat)
                                   molecule  experimental.result
1  CC(C)CNc1c([N+](=O)[O-])c2nnnn2c2ncccc12        171 °C (dec.)
2  CC(C)(O)Cn1c(Cc2ccccc2)nc2c(N)nc3cccnc3c21        211 to 213 °C
3                 CC(C)Cn1cnc2cnc3cccnc3c21          82 to 84 °C
4  CCCCc1nc2c(N)nc3cccnc3c2n1CCNC(=O)C1CCC(=O)O1 (stereo not shown)        153 to 154 °C
5           CCCCc1nc2c(N)nc3cccnc3c2n1CCCCN        212 to 213 °C
6             Cc1nc2c(N)nc3cccnc3c2n1CC(C)C        228 to 230 °C

State the recorded melting point for this entry: CCCCc1nc2c(N)nc3cccnc3c2n1CCNC(=O)CCc1ccccc1 (as salt: hydrochloride)
183 to 185 °C

* * *

# maps each entry to its melting point

Here are 5 molecules together with their reported answers.
> print(dat)
                                molecule  experimental.result
1    CCCCc1nc2c(N)nc3cccnc3c2n1CCCOC(C)C        174 to 175 °C
2         CC(C)Cn1cnc2c(N)nc3c(c21)CCCN3        231 to 233 °C
3     CCCCc1nc2c(N)nc3c(c2n1CC(C)C)CCNC3        164 to 166 °C
4  CCCCc1nc2c(N)nc3cccnc3c2n1CCOc1ccccc1      159 to 159.2 °C
5         CC(C)Cn1cnc2c(N)nc3c(c21)CCNC3        220 to 223 °C

State the recorded melting point for this entry: CCCCc1nc2c(N)nc3cccnc3c2n1CCNC(=O)C1CCC(=O)N1 (stereo not shown)
135 to 138 °C

State the recorded melting point for this entry: C/C=C/C(=O)NCCn1c(CCCC)nc2c(N)nc3cccnc3c21
198 to 200 °C

* * *

Tested on: TNF
Test: Cytokine Induction in Human Cells: tumor necrosis factor (TNF) secreted by PBMCs, ELISA; note: call rule not given here
Type: cell-based
Details: Dose Concentration 1.0 μM, 18 to 24 hours
measurement-kind: TNF induction

Here are 5 compounds together with their reported answers.
> print(dat)
                                   compound  measurement.kind  experimental.result
1  CCCCc1nc2c(N)nc3cccnc3c2n1CCNC(=O)c1ccc(F)cc1     TNF induction                    +
2  CCCCc1nc2c(N)nc3cccnc3c2n1CCNS(=O)(=O)c1ccccc1     TNF induction                    −
3  CCCCCCCCCCCC(=O)NCCn1c(CCCC)nc2c(N)nc3cccnc3c21     TNF induction                    −
4       CCCCc1nc2c(N)nc3cccnc3c2n1CCNC(C)=O     TNF induction                    +
5  CCCCc1nc2c(N)nc3cccnc3c2n1CCNC(=O)c1cccc(O)n1     TNF induction                    −

Please look at the following compound next.
State the recorded TNF induction for this entry: CCCCc1nc2c(N)nc3cccnc3c2n1CCCCNC(=O)c1cc(C(F)(F)F)cc(C(F)(F)F)c1
−

* * *

Test system: TNF
Test: Cytokine Induction in Human Cells: tumor necrosis factor (TNF) secreted by PBMCs, ELISA; note: call rule not given here
Type: cell-based
Details: Dose Concentration 1.0 μM, 18 to 24 hours
measurement-kind: TNF induction

> print(dat)
                                   compound  experimental.result
1  CCCCc1nc2c(N)nc3cccnc3c2n1CCNC(=O)c1cc(C(F)(F)F)cc(C(F)(F)F)c1 [Example 125]                    −
2  CCCCc1nc2c(N)nc3cccnc3c2n1CCCCNC(=O)CSc1ccncc1 [Example 110]                    +
3  CCCCc1nc2c(N)nc3cccnc3c2n1CCNC(=O)CCCCCCCCC(=O)OC [Example 122]                    −
4  CC(C)Cn1cnc2c(N)nc3cccnc3c21 [Example 32]                    −
5  CCCCc1nc2c(N)nc3cccnc3c2n1CCNC(=O)C1CC1 [Example 136]                    −
6  CCCCc1nc2c(N)nc3cccnc3c2n1CCNS(C)(=O)=O [Example 116]                    +

Please look at the following compound next.
// fetch TNF TNF induction for CCCCc1nc2c(N)nc3cccnc3c2n1CCNC(=O)CC(C)CCC=C(C)C (stereo not shown) [Example 100]
−

* * *

measurement-kind: melting point

> print(dat)
                                   molecule  experimental.result
1  NCCCCn1cnc2c(N)nc3cccnc3c21 [Example 111]        161 to 163 °C
2  CCCCc1nc2c(N)nc3cccnc3c2n1CCNC(=O)c1c(C)noc1C [Example 103]        188 to 189 °C
3   Cc1nc2cnc3cccnc3c2n1CC(C)C [Example 34]        118 to 119 °C
4  CCOCc1nc2c(N)nc3cccnc3c2n1Cc1ccccc1 [Example 70]        173 to 174 °C

State the recorded melting point for this entry: CC(C)OCCCNc1c([N+](=O)[O-])cnc2cccnc12 [Example 71]
62.5 to 63.5 °C

State the recorded melting point for this entry: CCCCc1nc2c(N)nc3cccnc3c2n1CCCCNC(=O)c1ccc(N2CCOCC2)nc1 (hydrate or solvate) [Example 106]
95 to 100 °C
